Just for reference, ChEMBL document CHEMBL1201862 is where these values come from.

- Test system: HCT-116
- test-name: NCI tumour cell line growth inhibition, 48 h
Active and inactive are the calls of the source. Cut-off read from the data, not from the text of the source: active = GI50 up to about 1.1 µM and inactive = higher.
Reply using exactly one outcome from t (active), f (inactive)

Examples from the recorded data:
1. COC(=O)C1CCC(=O)N1C(c1ccc(OC)cc1)c1ccc2c(c1)OCO2 (stereo not drawn)
f
2. Cc1ccc(-c2nc(N/N=C/c3ccc(O)cc3)c3ccccc3n2)cc1
f
3. Oc1cc(O)c2ccc(-c3ccc(O)c(O)c3)[o+]c2c1
f

INPUT: Each compound tested received a call. Report the one for `CCOC(=O)c1cc2cc(C)cc(C(=O)c3ccc([N+](=O)[O-])cc3)c2[nH]1` .
OUTPUT: f

INPUT: Each compound tested received a call. Report the one for COC(=O)C(CCCCNC(=O)CNC(=O)OCc1ccccc1)NC(=O)C(CCCCNC(=O)CNC(=O)OCc1ccccc1)NC(=O)OCc1ccccc1 (stereo not drawn) .
OUTPUT: f
